Test system: HL-60(TB) leukemia
Test: NCI tumour cell line growth inhibition, 48 h
The following compounds are listed with their measured TGI values.

- Compound: "Oc1c([Si](c2ccccc2)(c2ccccc2)c2ccccc2)cc2ccccc2c1-c1c(O)c([Si](c2ccccc2)(c2ccccc2)c2ccccc2)cc2ccccc12"
  TGI: "> 100 µM"
- Compound: "COc1cccc(-n2ncc3c(N/N=C/c4ccncc4)ncnc32)c1"
  TGI: "> 25 µM"
- Compound: "COc1ccccc1Cc1nc(-c2ccccc2)nn(C2OC(COC(C)=O)C(OC(C)=O)C(OC(C)=O)C2OC(C)=O)c1=S (centres undefined)"
  TGI: "> 100 µM"
- Compound: "COc1ccc(OC)c2c1C(=O)C1CC1(Br)C2=O (centres undefined)"
  TGI: "> 100 µM"
